- Test system: NCI-H23
- assay-text: NCI tumour cell line growth inhibition, 48 h
The source made the active and inactive calls. Rule as the data show it: active = GI50 up to about 1.1 µM and inactive = higher. Where a SMILES comes first, the peptide text is derived from it. The star is where a group is joined. Cbz = O=C(OCc1ccccc1)*
GI50 for assorted molecules

{"columns": ["molecule", "GI50"],
 "data": [
  ["Clc1ccc2c(c1)CC1C[N+]3=C(CCCC3)C1=C2 (centres undefined)", "69 µM (inactive)"],
  ["CCOC(=O)C(CC(=O)OC)NC(=O)C(CC(=O)OC)NC(=O)C(CC(=O)OC)NC(=O)C(CC(=O)OC)NC(=O)OCc1ccccc1 (centres undefined) (Cbz-D(OMe)D(OMe)D(OMe)D(OMe)-OEt; configuration not given here)", "> 100 µM (inactive)"],
  ["COc1cc2c(cc1O)CC1c3c(cc(O)c(OC)c3-2)CCN1C (centres undefined)", "> 100 µM (inactive)"],
  ["CC(C)=Cc1cc(C(=O)Nc2ccc(Cl)c(Cl)c2)nc(N)n1", "> 100 µM (inactive)"],
  ["C=Cc1cnc([N+](=O)[O-])n1C", "98.9 µM (inactive)"],
  ["CC1=NN2C(=N)/C(=C/c3ccc(F)cc3)C(=O)N=C2S1", "> 100 µM (inactive)"],
  ["CCN(CCO)C(=O)C1(c2ccccc2)CCCCC1", "> 10 µM (inactive)"],
  ["CN(C)Cc1cc(/N=N/c2ccc(Cl)cc2)ccc1OC(=O)c1ccccc1", "17.8 µM (inactive)"],
  ["C/C=C(\\C)C(=O)OC1C(C)=C2C(C1OC(=O)CCCC)C(C)(OC(C)=O)CC(OC(=O)CCCC)C1(O)C2OC(=O)C1(C)O (centres undefined)", "1.14 µM (inactive)"]
]}

* * *

- Tested on: NCI-H23
- assay-text: NCI tumour cell line growth inhibition, 48 h
Active and inactive are the calls of the source. Rule as the data show it: active = GI50 up to about 1.1 µM and inactive = higher.
readout: GI50

{"columns": ["compound", "reported-measurement"],
 "data": [
  ["CCC1NC(=O)C1NC(=O)OC (configuration not stated)", "> 100 µM (inactive)"],
  ["Cc1cc(OP2(=O)NCc3ccncc3O2)ccc1Cl (configuration not stated)", "> 100 µM (inactive)"],
  ["CCOC(=O)c1oc2c(OC)ccc3c2c1CCC3", "96.4 µM (inactive)"],
  ["C(=C/c1nc2ccccc2o1)/c1ccc2c(c1)OCO2", "22.9 µM (inactive)"],
  ["CCOC(=O)c1csc(NC(=O)CCN2CCCCC2)n1", "> 100 µM (inactive)"],
  ["COC(=O)C1=C(C)NC(C)=C(C(=O)OC)C1c1cccc(NO)c1", "16.3 µM (inactive)"],
  ["CCC1=C(C(C)=O)[C@@H]2CCCCC(C(=O)OC)[C@@H]2C1=O (some centres not stated)", "> 100 µM (inactive)"],
  ["CN1CCN(C2=C(Cl)C3(OCCS3)C(F)(F)C2(F)F)CC1 (configuration not stated)", "27.1 µM (inactive)"],
  ["CN1CCN(c2cc3[nH]c(-c4ccc(Cl)cc4)nc3cc2F)CC1", "15.8 µM (inactive)"],
  ["COc1cc(CO)c(CC(=O)NCCCc2ccccc2)cc1OC", "> 100 µM (inactive)"],
  ["Cc1ccc([N+](=O)[O-])c2c(NCCC[N+](C)(C)[O-])ccnc12", "33.4 µM (inactive)"],
  ["COC(=O)C1(Cc2ccc3c(c2)CCC3)Cc2cc3c(cc2C1=O)CCC3 (configuration not stated)", "22 µM (inactive)"]
]}
